# Tested on: A498
# methodNotes: AUC of dose-response viability curve, drug + dasatinib, normalised to DMSO (arbitrary (AUC of normalised viability)); higher = less growth inhibition
# condition: treatment: drug + dasatinib (fixed dose, not stated); 5 days
Criterion: AUC of dose-response viability curve strictly under 3. Met: class 1. Not met: class 0.

[
  {
    "compound": "FC(F)c1nc2ccccc2n1-c1nc(N2CCOCC2)nc(N2CCOCC2)n1 [ZSTK474] + Cc1nc(Nc2ncc(C(=O)Nc3c(C)cccc3Cl)s2)cc(N2CCN(CCO)CC2)n1",
    "labelValue": "class 1"
  },
  {
    "compound": "CCN(CC)CCNC(=O)c1c(C)[nH]c(/C=C2\\C(=O)Nc3ccc(F)cc32)c1C.O=C(O)C[C@H](O)C(=O)O [Sunitinib Malate (Sutent)] + Cc1nc(Nc2ncc(C(=O)Nc3c(C)cccc3Cl)s2)cc(N2CCN(CCO)CC2)n1",
    "labelValue": "class 1"
  },
  {
    "compound": "NC(=O)Nc1sc(-c2ccc(F)cc2)cc1C(N)=O [TPCA-1] + Cc1nc(Nc2ncc(C(=O)Nc3c(C)cccc3Cl)s2)cc(N2CCN(CCO)CC2)n1",
    "labelValue": "class 0"
  },
  {
    "compound": "CN1CCN(c2cccc(Nc3nc4c(-c5ccc(S(C)(=O)=O)cc5)cccn4n3)c2)CC1 + Cc1nc(Nc2ncc(C(=O)Nc3c(C)cccc3Cl)s2)cc(N2CCN(CCO)CC2)n1",
    "labelValue": "class 0"
  },
  {
    "compound": "Cc1cc(C(=O)NOCCO)c(Nc2ccc(I)cc2F)n(C)c1=O [AZD8330] + Cc1nc(Nc2ncc(C(=O)Nc3c(C)cccc3Cl)s2)cc(N2CCN(CCO)CC2)n1",
    "labelValue": "class 1"
  },
  {
    "compound": "CCO.N#CC(=C(/N)Sc1ccccc1N)/C(C#N)=C(\\N)Sc1ccccc1N [U0126-EtOH] + Cc1nc(Nc2ncc(C(=O)Nc3c(C)cccc3Cl)s2)cc(N2CCN(CCO)CC2)n1",
    "labelValue": "class 0"
  },
  {
    "compound": "O=C1NC(=O)/C(=C/c2ccc(-c3ccc(F)cc3O)o2)S1 + Cc1nc(Nc2ncc(C(=O)Nc3c(C)cccc3Cl)s2)cc(N2CCN(CCO)CC2)n1",
    "labelValue": "class 0"
  },
  {
    "compound": "c1ccc2c(CCNc3ccc(Nc4ccncc4)cc3)c[nH]c2c1 + Cc1nc(Nc2ncc(C(=O)Nc3c(C)cccc3Cl)s2)cc(N2CCN(CCO)CC2)n1",
    "labelValue": "class 1"
  },
  {
    "compound": "CN1C(=O)C(Cc2c[nH]c3ccccc23)NC1=S (centres undefined) [Necrostatin-1] + Cc1nc(Nc2ncc(C(=O)Nc3c(C)cccc3Cl)s2)cc(N2CCN(CCO)CC2)n1",
    "labelValue": "class 0"
  },
  {
    "compound": "CN(C)CCOc1ccc(-c2nc(-c3ccncc3)c(-c3ccc4c(c3)CC/C4=N/O)[nH]2)cc1 + Cc1nc(Nc2ncc(C(=O)Nc3c(C)cccc3Cl)s2)cc(N2CCN(CCO)CC2)n1",
    "labelValue": "class 0"
  },
  {
    "compound": "O=C(Cc1ccc(-c2ccc(OCCN3CCOCC3)cc2)cn1)NCc1ccccc1 [KX2-391] + Cc1nc(Nc2ncc(C(=O)Nc3c(C)cccc3Cl)s2)cc(N2CCN(CCO)CC2)n1",
    "labelValue": "class 1"
  },
  {
    "compound": "O=C(Nc1c[nH]nc1-c1nc2cc(CN3CCOCC3)ccc2[nH]1)NC1CC1 [AT9283] + Cc1nc(Nc2ncc(C(=O)Nc3c(C)cccc3Cl)s2)cc(N2CCN(CCO)CC2)n1",
    "labelValue": "class 1"
  }
]
